The reported measurements were obtained from ChEMBL document CHEMBL5104186.

- subject.of.test: P2X purinoceptor 3 (Homo sapiens) (UniProt P56373)
- Sequence (P56373 whole entry): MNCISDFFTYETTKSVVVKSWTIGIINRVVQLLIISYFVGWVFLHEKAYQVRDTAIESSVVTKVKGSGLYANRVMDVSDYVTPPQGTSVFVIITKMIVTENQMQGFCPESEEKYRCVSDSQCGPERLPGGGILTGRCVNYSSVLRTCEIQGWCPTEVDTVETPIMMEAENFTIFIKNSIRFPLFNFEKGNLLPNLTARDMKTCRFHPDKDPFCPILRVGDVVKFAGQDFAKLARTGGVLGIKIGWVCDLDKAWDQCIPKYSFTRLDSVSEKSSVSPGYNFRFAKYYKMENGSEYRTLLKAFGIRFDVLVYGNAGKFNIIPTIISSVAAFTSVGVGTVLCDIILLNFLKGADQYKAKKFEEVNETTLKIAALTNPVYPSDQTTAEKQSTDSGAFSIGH
- method: Antagonist activity at human P2X3R transfected in CHO-K1 cells at 30 uM preincubated for 30 mins followed by alpha,beta-meATP addition by fluorescence based assay relative to control
- Assay type: cell-based
- Design: scale not given: the % may be the effect or the level left
Activity of 10% or higher: yes. Under 10%: no.

smiles.str | discrete.label
O=C1CC(=O)N(c2cncc(-c3noc(=S)[nH]3)c2)c2ccc3ccccc3c2N1 | no
[N-]=[N+]=NCc1ccc2c3c(ccc2c1)N(c1cccc(-c2noc(=S)[nH]2)c1)C(=O)CC(=O)N3 | no
O=C1CC(=O)N(c2cc(-c3noc(=S)[nH]3)ccn2)c2ccc3ccccc3c2N1 | yes
NCc1ccc2ccc3c(c2c1)NC(=O)CC(=O)N3c1cccc(-c2noc(=S)[nH]2)c1 | no
[N-]=[N+]=NCc1ccc2ccc3c(c2c1)NC(=O)CC(=O)N3c1cccc(-c2noc(=S)[nH]2)c1 | yes

Prompt line: Is it the case that O=C1CC(=O)N(c2cccc(-c3noc(=S)[nH]3)c2)c2cc(-c3ccccc3)c3ccccc3c2N1 has Activity reaching or exceeding 10%?
Response line: yes

Prompt line: Test whether the molecule O=C1CC(=O)N(c2cccc(-c3noc(=S)[nH]3)c2)c2cc(C#Cc3ccccc3)c3ccccc3c2N1 records Activity of 10% or higher.
Response line: no
